Data origin, for the record: BigSolDB 2.1

Condition set: in ethyl acetate, 283.15 K
Recorded metric: solubility (mole fraction)
# answer = number (no unit)

Item: Cc1c([N+](=O)[O-])c(C)c([N+](=O)[O-])c(C(C)(C)C)c1[N+](=O)[O-] | solubility (mole fraction): 0.115

====

Condition set: in n-butanol, 303.15 K
Recorded metric: solubility (mole fraction)
# answer = number (no unit)

Item: Cc1c([N+](=O)[O-])c(C)c([N+](=O)[O-])c(C(C)(C)C)c1[N+](=O)[O-] | solubility (mole fraction): 0.00666

====

Condition set: in DMAc, 313.15 K
Recorded metric: solubility (mole fraction)
# answer = number (no unit)

Item: Cc1c([N+](=O)[O-])c(C)c([N+](=O)[O-])c(C(C)(C)C)c1[N+](=O)[O-] | solubility (mole fraction): 0.263
